EXPERIMENTAL SYSTEM: UniProt:Q72874
ASSAY REMARKS: Inhibition of HIV-1 Protease.
ASSAY READOUT: IC50 (nM)
The reply should be a number in nM, with the unit left off.

Consider the reported IC50 for these compounds:
{"SMILES STRING": "CCNC(=O)N(CC(C)C)C[C@@H](O)[C@H](Cc1ccccc1)NC(=O)[C@H](CC(N)=O)NC(=O)OCc1ccccc1", "IC50 / nM": 330}
{"SMILES STRING": "CC(C)(C)NC(=O)N(CC1CCCCC1)C[C@@H](O)[C@H](Cc1ccccc1)NC(=O)[C@H](CC(N)=O)NC(=O)c1ccc2ccccc2n1", "IC50 / nM": 5}
{"SMILES STRING": "CC(C)(C)NC(=O)N(CC1CCCCC1)C[C@@H](O)[C@H](Cc1ccccc1)NC(=O)[C@H](CC(N)=O)NC(=O)OCc1ccccc1", "IC50 / nM": 29}
{"SMILES STRING": "C[C@@H](c1ccccc1)N(C[C@@H](O)[C@H](Cc1ccccc1)NC(=O)[C@H](CC(N)=O)NC(=O)OCc1ccccc1)C(=O)NC(C)(C)C", "IC50 / nM": 5100}
{"SMILES STRING": "CC(C)CCN(C[C@@H](O)[C@H](Cc1ccccc1)NC(=O)[C@H](CC(N)=O)NC(=O)OCc1ccccc1)C(=O)NC(C)(C)C", "IC50 / nM": 13}

Task item: Sample `CC(C)CN(C[C@H](O)[C@H](Cc1ccccc1)NC(=O)[C@H](CC(N)=O)NC(=O)OCc1ccccc1)C(=O)NC(C)(C)C` — what was its IC50?
Reply: 54000

Task item: Sample `CC(C)(C)NC(=O)N(Cc1ccncc1)C[C@@H](O)[C@H](Cc1ccccc1)NC(=O)[C@H](CC(N)=O)NC(=O)OCc1ccccc1` — what was its IC50?
Reply: 105

Task item: Sample `CC(C)CN(C[C@@H](O)[C@H](Cc1ccccc1)NC(=O)[C@H](CC(N)=O)NC(=O)c1ccc2ccccc2n1)C(=O)NC(C)(C)C` — what was its IC50?
Reply: 6

Task item: Sample `CC(C)CN(C[C@H](O)[C@H](Cc1ccccc1)NC(=O)[C@H](CC(N)=O)NC(=O)c1ccc2ccccc2n1)C(=O)NC(C)(C)C` — what was its IC50?
Reply: 10000

Task item: Sample `CC(C)(C)NC(=O)N(Cc1ccncc1)C[C@@H](O)[C@H](Cc1ccccc1)NC(=O)[C@H](CC(N)=O)NC(=O)c1ccc2ccccc2n1` — what was its IC50?
Reply: 19

Task item: Sample `CCCCNC(=O)N(CC(C)C)C[C@@H](O)[C@H](Cc1ccccc1)NC(=O)[C@H](CC(N)=O)NC(=O)OCc1ccccc1` — what was its IC50?
Reply: 940

Task item: Sample `CC(C)CN(C[C@@H](O)[C@H](Cc1ccccc1)NC(=O)[C@H](CC(N)=O)NC(=O)OCc1ccccc1)C(=O)NC(C)(C)C` — what was its IC50?
Reply: 35

Task item: Sample `CCCC[C@@H](CN[C@@H](CCCC)C(=O)N[C@@H](CCC(N)=O)C(=O)N[C@@H](CCCNC(=N)N)C(N)=O)NC(=O)[C@@H](NC(=O)[C@@H](NC(C)=O)[C@@H](C)O)[C@@H](C)CC` — what was its IC50?
Reply: 1900

----------
EXPERIMENTAL SYSTEM: Human immunodeficiency virus type 1 protease (Human immunodeficiency virus 1, UniProt Q72874)
ASSAY REMARKS: Inhibition of HIV-1 Protease.
ASSAY READOUT: IC50

Consider the reported IC50 for these molecules:
{"SMILES STRING": "CC(C)CN(C[C@@H](O)[C@H](Cc1ccccc1)NC(=O)[C@H](CC(N)=O)NC(=O)OCc1ccccc1)C(=O)NC(C)C", "IC50": "260 nM"}
{"SMILES STRING": "CCCNC(=O)N(CC(C)C)C[C@@H](O)[C@H](Cc1ccccc1)NC(=O)[C@H](CC(N)=O)NC(=O)OCc1ccccc1", "IC50": "518 nM"}
{"SMILES STRING": "CCCCNC(=O)N(CC(C)C)C[C@@H](O)[C@H](Cc1ccccc1)NC(=O)[C@H](CC(N)=O)NC(=O)c1ccc2ccccc2n1", "IC50": "126 nM"}
{"SMILES STRING": "CC(C)(C)NC(=O)N(Cc1ccccc1)C[C@@H](O)[C@H](Cc1ccccc1)NC(=O)[C@H](CC(N)=O)NC(=O)c1ccc2ccccc2n1", "IC50": "3 nM"}
{"SMILES STRING": "CC(C)CCN(C[C@@H](O)[C@H](Cc1ccccc1)NC(=O)[C@H](CC(N)=O)NC(=O)c1ccc2ccccc2n1)C(=O)NC(C)(C)C", "IC50": "3 nM"}

Task item: Sample `C[C@H](c1ccccc1)N(C[C@@H](O)[C@H](Cc1ccccc1)NC(=O)[C@H](CC(N)=O)NC(=O)OCc1ccccc1)C(=O)NC(C)(C)C` — what was its IC50?
Reply: 6500 nM

Task item: Sample `CC(C)(C)NC(=O)N(Cc1ccccc1)C[C@@H](O)[C@H](Cc1ccccc1)NC(=O)[C@H](CC(N)=O)NC(=O)OCc1ccccc1` — what was its IC50?
Reply: 19 nM

----------
EXPERIMENTAL SYSTEM: Human immunodeficiency virus type 1 protease (Human immunodeficiency virus 1)
ASSAY REMARKS: Inhibition of HIV-1 Protease
Design: concentration or dose not given beside the values
CONDITIONS USED: concentration not given here
ASSAY READOUT: inhibition

Consider the reported inhibition for these molecules:
{"SMILES STRING": "CCCCNC(=O)N(CC(C)C)C[C@H](O)[C@H](Cc1ccccc1)NC(=O)[C@H](CC(N)=O)NC(=O)OCc1ccccc1", "inhibition": "< 50%"}
{"SMILES STRING": "CCCCNC(=O)N(C)C[C@H](O)[C@H](Cc1ccccc1)NC(=O)[C@H](CC(N)=O)NC(=O)OCc1ccccc1", "inhibition": "< 50%"}
{"SMILES STRING": "CCCCNC(=O)N(C)C[C@@H](O)[C@H](Cc1ccccc1)NC(=O)[C@H](CC(N)=O)NC(=O)OCc1ccccc1", "inhibition": "< 50%"}
{"SMILES STRING": "CNC(=O)N(C)C[C@@H](O)[C@H](Cc1ccccc1)NC(=O)[C@H](CC(N)=O)NC(=O)OCc1ccccc1", "inhibition": "< 50%"}
{"SMILES STRING": "CNC(=O)N(CC(C)C)C[C@H](O)[C@H](Cc1ccccc1)NC(=O)[C@H](CC(N)=O)NC(=O)OCc1ccccc1", "inhibition": "< 50%"}

Task item: Sample `CNC(=O)N(C)C[C@H](O)[C@H](Cc1ccccc1)NC(=O)[C@H](CC(N)=O)NC(=O)OCc1ccccc1` — what was its inhibition?
Reply: < 50%

----------
EXPERIMENTAL SYSTEM: Human immunodeficiency virus type 1 protease (Human immunodeficiency virus 1)
ASSAY REMARKS: Compounds were tested for their concentration to inhibit the HIV-1 Protease
ASSAY READOUT: pIC50
Conceptually, pIC50 converts a concentration in mol/L into minus its log10.

Task item: Sample `CNC(=O)N(CC(C)C)C[C@@H](O)[C@H](Cc1ccccc1)NC(=O)[C@H](CC(N)=O)NC(=O)OCc1ccccc1` — what was its pIC50?
Reply: 5.82

Values were extracted from ChEMBL document CHEMBL1126824.
